experiment-notes: Anti viral activity against 2.2.15 cells (concentration required to reduce the log phase cell growth by 50%).
Assay type: cell-based
measurement-context: human, 2.2.15 cells (HepG2-derived); read-out: TC50 (the source's name)
measurement-label: GI50 (µg/mL)
Answers are plain numbers, in µg/mL.

Q) May I ask what GI50 has been recorded for Nc1ccn([C@H]2CC[C@@H](CO)O2)c(=O)n1 [ZALCITABINE] ?
A) 64

Q) Next entry: Nc1nc(N)c2ccn([C@@H]3O[C@H](CO)[C@@H](O)[C@@H]3F)c2n1
A) 630

Continuing:
Q) May I ask what GI50 has been recorded for Nc1nc(N)c2ccn(C3OC(CO)CC3F)c2n1 (centres undefined) ?
A) 149

* * *

experiment-notes: Anti viral activity against Vero cells (concentration required to reduce the log phase cell growth by 50%).
Format: cell-based
measurement-context: chlorocebus sabaeus, read-out: TC50 (the source's name)
measurement-label: CC50 (µg/mL)
Numbers only, in µg/mL.

Q) May I ask what CC50 has been recorded for Nc1nc(N)c2ccn([C@@H]3O[C@H](CO)[C@@H](O)[C@@H]3F)c2n1 ?
A) 53

* * *

Would you mind telling me the reported IC50 of each entry?
Test system: MRC5
experiment-notes: Anti HCMV (human cytomegalovirus) activity in MRC-5 cells infected with […] strain of HCMV (plaque reduction assay).
Type: functional, cell-based
Answers are plain numbers, in µg/mL.

Q) May I ask what IC50 has been recorded for Nc1nc2c(ccn2[C@@H]2O[C@H](CO)[C@@H](O)[C@@H]2F)c(=O)[nH]1 ?
A) 51

Q) Next entry: Nc1nc(N)c2ccn([C@@H]3O[C@H](CO)[C@@H](O)[C@@H]3F)c2n1
A) 3.7

Q) Next entry: Nc1ncc2ccn([C@@H]3O[C@H](CO)[C@@H](O)C3F)c2n1 (stereo partly specified)
A) 16

Q) Next entry: Nc1nc([SeH])c2ccn([C@@H]3O[C@H](CO)[C@@H](O)[C@@H]3F)c2n1
A) 10

Please turn your attention to the following entry.
Q) May I ask what IC50 has been recorded for Nc1nc2c(ncn2COC(CO)CO)c(=O)[nH]1 ?
A) 3.2

* * *

experiment-notes: Visual cytotoxicity of […], median toxic concentration is evaluated by plaque reduction assay performed in HFF Cell line Hs 68
Assay type: cell-based
measurement-context: human
measurement-label: CC50

Q) May I ask what CC50 has been recorded for Nc1nc(N)c2ccn([C@@H]3O[C@H](CO)[C@@H](O)[C@@H]3F)c2n1 ?
A) > 1000 µg/mL

* * *

experiment-notes: Anti viral activity against MRC-5 cells (concentration required to reduce the log phase cell growth by 50%).
Assay type: cell-based, MRC5
measurement-context: human, read-out: TC50 (the source's name)
measurement-label: GI50 (µg/mL)
Give bare numbers, in µg/mL.

Q) May I ask what GI50 has been recorded for Nc1nc(N)c2ccn([C@@H]3O[C@H](CO)[C@@H](O)[C@@H]3F)c2n1 ?
A) 11.4

* * *

experiment-notes: Visual cytotoxicity of stationary MRC-5 cells, median toxic concentration is evaluated by anti HCMV plaque reduction assay performed in MRC-5 cells using the AD169 strain of HCMV
Assay type: cell-based, MRC5
measurement-context: human, read-out: TC50 (the source's name)
measurement-label: CC50

Q) May I ask what CC50 has been recorded for Nc1nc(N)c2ccn([C@@H]3O[C@H](CO)[C@@H](O)[C@@H]3F)c2n1 ?
A) > 100 µg/mL

Q) Next entry: COc1nc(N)nc2c1ccn2[C@@H]1O[C@H](CO)[C@@H](O)[C@@H]1F
A) > 100 µg/mL

Q) Next entry: Nc1ncc2ccn([C@@H]3O[C@H](CO)[C@@H](O)C3F)c2n1 (stereo partly specified)
A) > 100 µg/mL

Q) Next entry: NSc1nc(N)nc2c1ccn2[C@@H]1O[C@H](CO)[C@@H](O)[C@@H]1F
A) > 100 µg/mL

Q) Next entry: Nc1nc(Cl)c2ccn([C@@H]3O[C@H](CO)[C@@H](O)[C@@H]3F)c2n1
A) 32 µg/mL

Answer for every listed entry: what is its CC50? The entries follow.
1. Nc1nc2c(ncn2COC(CO)CO)c(=O)[nH]1
2. Nc1ncc2c(n1)N([C@@H]1O[C@H](CO)[C@@H](O)[C@@H]1F)CC2
3. Nc1nc([SeH])c2ccn([C@@H]3O[C@H](CO)[C@@H](O)[C@@H]3F)c2n1
4. Nc1nc(N)c2ccn(C3OC(CO)CC3F)c2n1 (stereo unspecified)
5. Nc1nc2c(ccn2[C@@H]2O[C@H](CO)[C@@H](O)[C@@H]2F)c(=O)[nH]1

A)
1. > 1000 µg/mL
2. 32 µg/mL
3. 178 µg/mL
4. > 100 µg/mL
5. > 100 µg/mL

Q) May I ask what CC50 has been recorded for NC1=NC(=S)C2C=CN([C@@H]3O[C@H](CO)[C@@H](O)[C@@H]3F)C2=N1 (stereo partly specified) ?
A) > 50 µg/mL

* * *

experiment-notes: Anti viral activity against vero cells (concentration required to reduce the log phase cell growth by 50%).
Type: cell-based
measurement-context: chlorocebus sabaeus, read-out: TC50 (the source's name)
measurement-label: CC50 (µg/mL)
One number for each entry, in µg/mL.

Q) May I ask what CC50 has been recorded for Nc1nc2c(ncn2COC(CO)CO)c(=O)[nH]1 ?
A) 270

* * *

experiment-notes: Visual cytotoxicity of stationary HFF Cell line Hs68, median toxic concentration is evaluated by anti HCMV plaque reduction assay performed in HFF Cell line Hs 68
Assay type: cell-based
measurement-context: human, read-out: TC50 (the source's name)
measurement-label: CC50

Q) May I ask what CC50 has been recorded for Nc1nc2c(ncn2COC(CO)CO)c(=O)[nH]1 ?
A) > 1000 µg/mL

* * *

Test system: MRC5
experiment-notes: Anti HCMV (human cytomegalovirus) activity in MRC-5 cells infected with […] strain of HCMV (plaque reduction assay).
Type: functional, cell-based
measurement-label: IC50

Answer for every listed entry: what is its IC50? The entries follow.
1. Nc1ncc2c(n1)N([C@@H]1O[C@H](CO)[C@@H](O)[C@@H]1F)CC2
2. NC1=NC(=S)C2C=CN([C@@H]3O[C@H](CO)[C@@H](O)[C@@H]3F)C2=N1 (stereo partly specified)
3. COc1nc(N)nc2c1ccn2[C@@H]1O[C@H](CO)[C@@H](O)[C@@H]1F
4. NSc1nc(N)nc2c1ccn2[C@@H]1O[C@H](CO)[C@@H](O)[C@@H]1F
5. Nc1nc(N)c2ccn(C3OC(CO)CC3F)c2n1 (stereo unspecified)

A)
1. > 100 µg/mL
2. > 50 µg/mL
3. > 100 µg/mL
4. > 100 µg/mL
5. > 100 µg/mL

Q) May I ask what IC50 has been recorded for Nc1nc(Cl)c2ccn([C@@H]3O[C@H](CO)[C@@H](O)[C@@H]3F)c2n1 ?
A) > 100 µg/mL
